experiment: Half-life in ICR mouse at 25 mg/kg, ip measured upto 24 hrs by LC-MS/MS analysis; format: ADME, organism-based; conditions: in vivo
Quantity: half-life (h)
Respond numerically; units are h and should not be typed.

What does the record list as half-life for COc1c(C)cnc(Cn2cnc3c(NCCOCCOCCOCCn4cc(COc5ccc(N(C(=O)CCl)C(C(=O)NCCc6ccccc6)c6cccs6)cc5Cl)nn4)nc(N)nc32)c1C (configuration not stated) ?
5.5

What does the data say about its half-life? Entry: COc1c(C)cnc(Cn2cnc3c(NCCC4CCN(C(=O)Cn5cc(COc6ccc(N(C(=O)CCl)C(C(=O)NCCc7ccccc7)c7cccs7)cc6Cl)nn5)CC4)nc(N)nc32)c1C (configuration not stated)
5
